# tested system: human Nav1.7 (Homo sapiens)
# Construct: expressed in transfected cells
# Sequence (Q15858 whole entry): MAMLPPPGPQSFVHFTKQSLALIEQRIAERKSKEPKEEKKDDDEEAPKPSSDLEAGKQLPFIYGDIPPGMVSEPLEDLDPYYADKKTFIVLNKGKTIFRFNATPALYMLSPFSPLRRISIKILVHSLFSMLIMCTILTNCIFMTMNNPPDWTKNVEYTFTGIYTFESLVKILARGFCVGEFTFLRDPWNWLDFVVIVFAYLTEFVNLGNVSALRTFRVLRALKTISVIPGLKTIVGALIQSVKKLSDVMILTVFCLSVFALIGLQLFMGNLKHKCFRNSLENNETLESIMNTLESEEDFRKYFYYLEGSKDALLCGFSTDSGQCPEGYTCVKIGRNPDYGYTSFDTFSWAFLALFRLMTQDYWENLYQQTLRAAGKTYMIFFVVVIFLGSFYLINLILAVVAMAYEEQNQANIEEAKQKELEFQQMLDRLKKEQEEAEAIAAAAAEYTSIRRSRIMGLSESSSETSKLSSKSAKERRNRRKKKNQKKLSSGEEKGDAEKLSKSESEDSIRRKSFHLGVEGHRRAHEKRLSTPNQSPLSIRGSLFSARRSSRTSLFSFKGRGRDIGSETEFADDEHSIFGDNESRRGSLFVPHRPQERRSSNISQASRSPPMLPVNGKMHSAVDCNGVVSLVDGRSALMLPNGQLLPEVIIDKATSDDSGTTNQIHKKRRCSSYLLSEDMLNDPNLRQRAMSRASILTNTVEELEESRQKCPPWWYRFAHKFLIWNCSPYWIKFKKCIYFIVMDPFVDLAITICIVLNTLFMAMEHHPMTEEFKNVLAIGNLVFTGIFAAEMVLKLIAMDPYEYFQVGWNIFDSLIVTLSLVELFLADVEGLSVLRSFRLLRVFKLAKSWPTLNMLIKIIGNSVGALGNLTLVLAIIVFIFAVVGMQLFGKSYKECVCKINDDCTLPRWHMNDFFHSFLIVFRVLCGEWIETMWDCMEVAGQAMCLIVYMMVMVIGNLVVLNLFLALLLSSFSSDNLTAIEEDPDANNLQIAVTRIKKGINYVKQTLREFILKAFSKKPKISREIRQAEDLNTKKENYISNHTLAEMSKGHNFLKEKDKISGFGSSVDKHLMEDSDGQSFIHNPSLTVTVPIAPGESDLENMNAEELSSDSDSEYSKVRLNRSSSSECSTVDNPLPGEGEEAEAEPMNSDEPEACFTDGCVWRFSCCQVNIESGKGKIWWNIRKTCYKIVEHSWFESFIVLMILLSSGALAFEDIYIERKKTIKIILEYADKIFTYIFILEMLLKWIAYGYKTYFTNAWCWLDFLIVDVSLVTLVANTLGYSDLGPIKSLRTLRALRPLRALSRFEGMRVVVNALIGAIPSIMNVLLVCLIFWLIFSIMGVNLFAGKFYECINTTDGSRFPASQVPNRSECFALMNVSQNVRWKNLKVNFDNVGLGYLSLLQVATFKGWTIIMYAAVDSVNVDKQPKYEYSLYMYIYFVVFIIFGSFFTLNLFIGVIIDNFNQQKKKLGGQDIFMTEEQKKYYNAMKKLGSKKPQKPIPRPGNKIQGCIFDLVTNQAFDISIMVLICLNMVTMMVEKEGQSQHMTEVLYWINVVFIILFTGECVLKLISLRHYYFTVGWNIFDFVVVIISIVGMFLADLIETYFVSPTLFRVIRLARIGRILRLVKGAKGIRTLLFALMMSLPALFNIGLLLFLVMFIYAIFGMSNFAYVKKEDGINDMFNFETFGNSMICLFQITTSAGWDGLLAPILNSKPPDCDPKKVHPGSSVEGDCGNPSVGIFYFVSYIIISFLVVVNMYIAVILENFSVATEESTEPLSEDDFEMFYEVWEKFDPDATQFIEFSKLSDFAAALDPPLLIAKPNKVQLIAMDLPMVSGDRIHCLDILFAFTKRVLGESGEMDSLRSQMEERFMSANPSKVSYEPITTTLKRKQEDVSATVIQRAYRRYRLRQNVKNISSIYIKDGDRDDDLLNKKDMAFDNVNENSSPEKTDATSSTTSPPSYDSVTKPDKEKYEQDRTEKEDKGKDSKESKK
# method summary: PatchXpress sodium current measurement, inactivated state block, Nav1.7
# Assay type: cell-based
# setup conditions: channels stably expressed in HEK 293 cells, double-pulse protocol, 22° C., read-out: potency for the Nav 1.7 sodium ion channel (1.7=)
measured parameter: IC50 (nM)

compound	measured parameter	assay result
Cc1c(CCCN)cccc1[C@@H](C)n1c(=O)oc2cc(S(=O)(=O)Nc3cccc(F)n3)c(F)cc21 [Ex22-3]	IC50	101
C[C@H](c1cccc(C#CC2(N)CC2)c1)n1c(=O)oc2cc(S(=O)(=O)Nc3cccc(F)n3)c(F)cc21 [Ex21-12]	IC50	258
Cl.NC1CCc2cccc(Cn3c(=O)oc4cc(S(=O)(=O)Nc5cccc(F)n5)c(F)cc43)c2C1 (single isomer, unassigned) [Ex13-4, hydrochloride]	IC50	89
C[C@H](c1ccccc1C1(O)CNC1)n1c(=O)oc2cc(S(=O)(=O)Nc3cccc(F)n3)c(F)cc21 [Ex12-4]	IC50	400
Cc1cc2c(cc1S(=O)(=O)Nc1cccc(F)n1)oc(=O)n2[C@H](C)c1ccccc1C1CCNCC1 [Ex18-3]	IC50	13
CCN(CC)CC#Cc1cccc([C@@H](C)n2c(=O)oc3cc(S(=O)(=O)Nc4cccc(F)n4)c(F)cc32)c1 [Ex21-15]	IC50	516
C[C@H](c1cccc(C#C[C@@H]2CCCC[C@@H]2N)c1)n1c(=O)oc2cc(S(=O)(=O)Nc3cccc(F)n3)c(F)cc21 [Ex21-17]	IC50	68

---

Each entry below lists one item and its recorded IC50 value.
# tested system: human Nav1.7 (Homo sapiens)
# Construct: expressed in transfected cells
# method summary: PatchXpress sodium current measurement, inactivated state block, Nav1.7
# Assay type: cell-based
# setup conditions: channels stably expressed in HEK 293 cells, double-pulse protocol, 22° C., read-out: potency for the Nav 1.7 sodium ion channel (1.7=)

compound	IC50 [nM]
C[C@H](c1cccc(C2=CCNCC2)c1)n1c(=O)oc2cc(S(=O)(=O)Nc3cccc(F)n3)c(F)cc21	127
Cc1cc2c(cc1S(=O)(=O)Nc1cccc(F)n1)oc(=O)n2[C@H](C)c1cccc(C)c1C#C[C@@H]1CCCC[C@@H]1N	9
C[C@H](c1cccc2c1CNCC2)n1c(=O)oc2cc(S(=O)(=O)Nc3cccc(F)n3)c(F)cc21.Cl [Ex3-5, hydrochloride]	99
C[C@H](c1ccccc1C1CNC1)n1c(=O)oc2cc(S(=O)(=O)Nc3cccc(F)n3)c(F)cc21	39
Cc1cc2c(cc1S(=O)(=O)Nc1cccc(F)n1)oc(=O)n2Cc1cccc2c1CC(N)CC2 (single isomer, unassigned) [Ex17-5]	24
NC1CCc2cccc(Cn3c(=O)oc4cc(S(=O)(=O)Nc5cccc(F)n5)c(F)cc43)c2C1 (single isomer, unassigned)	40
Cc1cc2c(cc1S(=O)(=O)Nc1cccc(F)n1)oc(=O)n2[C@H](C)c1cccc(C#CCN)c1	90

---

Each entry below lists one item and its recorded ratio of Nav 1.5:Nav 1.7 potency value.
# tested system: human Nav1.5 (Homo sapiens, UniProt Q14524)
# Construct: expressed in transfected cells
# Sequence (Q14524 whole entry): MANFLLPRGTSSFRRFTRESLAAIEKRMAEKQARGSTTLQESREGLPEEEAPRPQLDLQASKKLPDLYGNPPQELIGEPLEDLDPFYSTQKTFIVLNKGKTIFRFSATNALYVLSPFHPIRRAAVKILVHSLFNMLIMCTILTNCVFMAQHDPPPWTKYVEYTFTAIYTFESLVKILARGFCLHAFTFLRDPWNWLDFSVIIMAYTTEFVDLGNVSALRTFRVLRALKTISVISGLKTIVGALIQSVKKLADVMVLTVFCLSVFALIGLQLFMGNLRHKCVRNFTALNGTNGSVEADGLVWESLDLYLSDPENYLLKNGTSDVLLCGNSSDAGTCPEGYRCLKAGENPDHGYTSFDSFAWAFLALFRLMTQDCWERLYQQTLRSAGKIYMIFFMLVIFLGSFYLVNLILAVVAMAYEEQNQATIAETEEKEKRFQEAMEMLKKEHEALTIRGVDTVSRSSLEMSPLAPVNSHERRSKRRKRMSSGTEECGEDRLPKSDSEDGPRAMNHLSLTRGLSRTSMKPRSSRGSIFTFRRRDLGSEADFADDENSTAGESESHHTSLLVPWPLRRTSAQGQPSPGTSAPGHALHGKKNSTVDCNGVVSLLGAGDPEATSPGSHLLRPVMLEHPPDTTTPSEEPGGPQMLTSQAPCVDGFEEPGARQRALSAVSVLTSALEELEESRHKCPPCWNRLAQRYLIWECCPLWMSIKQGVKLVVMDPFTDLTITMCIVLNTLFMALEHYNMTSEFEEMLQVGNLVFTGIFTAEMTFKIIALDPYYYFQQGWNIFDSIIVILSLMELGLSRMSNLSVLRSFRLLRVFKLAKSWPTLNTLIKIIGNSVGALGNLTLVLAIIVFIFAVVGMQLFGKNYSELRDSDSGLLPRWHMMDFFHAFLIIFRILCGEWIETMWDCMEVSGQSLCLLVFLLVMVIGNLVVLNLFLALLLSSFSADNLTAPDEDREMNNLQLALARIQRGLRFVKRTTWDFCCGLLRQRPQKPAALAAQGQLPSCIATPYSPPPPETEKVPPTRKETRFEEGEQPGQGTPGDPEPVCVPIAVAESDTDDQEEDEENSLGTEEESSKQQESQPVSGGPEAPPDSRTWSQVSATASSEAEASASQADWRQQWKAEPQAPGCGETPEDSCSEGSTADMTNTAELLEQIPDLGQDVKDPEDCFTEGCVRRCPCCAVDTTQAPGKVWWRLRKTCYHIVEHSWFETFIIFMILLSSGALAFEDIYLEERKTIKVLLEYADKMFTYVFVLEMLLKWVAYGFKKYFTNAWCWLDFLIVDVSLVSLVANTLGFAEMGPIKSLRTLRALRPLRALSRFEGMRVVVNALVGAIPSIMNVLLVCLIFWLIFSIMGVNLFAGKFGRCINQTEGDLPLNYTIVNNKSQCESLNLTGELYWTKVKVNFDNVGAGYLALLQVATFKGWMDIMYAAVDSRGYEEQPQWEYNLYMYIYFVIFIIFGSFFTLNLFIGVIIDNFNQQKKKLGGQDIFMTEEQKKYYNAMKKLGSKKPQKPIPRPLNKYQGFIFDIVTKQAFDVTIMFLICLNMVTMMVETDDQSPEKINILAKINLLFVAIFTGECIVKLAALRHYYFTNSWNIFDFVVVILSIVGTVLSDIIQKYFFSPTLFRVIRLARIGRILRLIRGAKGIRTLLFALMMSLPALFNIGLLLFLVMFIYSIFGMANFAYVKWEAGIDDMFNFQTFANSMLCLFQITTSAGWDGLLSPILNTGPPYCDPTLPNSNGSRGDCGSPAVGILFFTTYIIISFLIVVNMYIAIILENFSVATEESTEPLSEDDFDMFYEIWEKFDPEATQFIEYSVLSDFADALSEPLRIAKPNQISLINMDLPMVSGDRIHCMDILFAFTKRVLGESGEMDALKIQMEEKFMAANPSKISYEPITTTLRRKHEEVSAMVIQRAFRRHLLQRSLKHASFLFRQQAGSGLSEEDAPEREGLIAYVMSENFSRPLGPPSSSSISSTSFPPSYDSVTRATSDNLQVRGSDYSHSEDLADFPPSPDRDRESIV
# method summary: PatchXpress sodium current measurement, inactivated state block, Nav1.5
# Format: cell-based
# setup conditions: determined by PatchXpress measurement, HEK 293 cells
measured parameter: ratio of Nav 1.5:Nav 1.7 potency

molecule	measured parameter	assay result
Cl.NC1CCc2cccc(Cn3c(=O)oc4cc(S(=O)(=O)Nc5cccc(F)n5)c(F)cc43)c2C1 (single isomer, unassigned)	ratio of Nav 1.5:Nav 1.7 potency	304
C[C@H](c1cccc(C#CCN2CCCC2)c1)n1c(=O)oc2cc(S(=O)(=O)Nc3cccc(F)n3)c(F)cc21	ratio of Nav 1.5:Nav 1.7 potency	89
C[C@H](c1ccccc1C#CCN1CCCC1)n1c(=O)oc2cc(S(=O)(=O)Nc3cccc(F)n3)c(F)cc21	ratio of Nav 1.5:Nav 1.7 potency	23
Cc1c(CCN)cccc1[C@@H](C)n1c(=O)oc2cc(S(=O)(=O)Nc3cccc(F)n3)c(F)cc21	ratio of Nav 1.5:Nav 1.7 potency	195
Cc1cc2c(cc1S(=O)(=O)Nc1cccc(F)n1)oc(=O)n2[C@H](C)c1cccc(Br)c1C	ratio of Nav 1.5:Nav 1.7 potency	90
CCN(CC)CC#Cc1cccc([C@@H](C)n2c(=O)oc3cc(S(=O)(=O)Nc4cccc(F)n4)c(F)cc32)c1	ratio of Nav 1.5:Nav 1.7 potency	58
C[C@H](c1cccc(CCCN2CCC2)c1)n1c(=O)oc2cc(S(=O)(=O)Nc3cccc(F)n3)c(F)cc21	ratio of Nav 1.5:Nav 1.7 potency	178
Cc1cc2c(cc1S(=O)(=O)Nc1cccc(F)n1)oc(=O)n2[C@H](C)c1cccc(C#CCN2CCC2)c1	ratio of Nav 1.5:Nav 1.7 potency	30
Cc1cccc([C@@H](C)n2c(=O)oc3cc(S(=O)(=O)Nc4cccc(F)n4)c(F)cc32)c1CN	ratio of Nav 1.5:Nav 1.7 potency	603
Nc1ccc2c(c1)C(n1c(=O)oc3cc(S(=O)(=O)Nc4cccc(F)n4)c(F)cc31)CCC2 (stereo not drawn)	ratio of Nav 1.5:Nav 1.7 potency	166
C[C@H](c1cccc2c1CNCC2)n1c(=O)oc2cc(S(=O)(=O)Nc3cc(Cl)ccn3)c(F)cc21	ratio of Nav 1.5:Nav 1.7 potency	88
C[C@H](c1ccccc1CN1CCCCC1)n1c(=O)oc2cc(S(=O)(=O)Nc3cccc(F)n3)c(F)cc21	ratio of Nav 1.5:Nav 1.7 potency	68
Cc1cc2c(cc1S(=O)(=O)Nc1cccc(F)n1)oc(=O)n2[C@H](C)c1ccccc1N1CCNCC1	ratio of Nav 1.5:Nav 1.7 potency	405
NC1CCc2cccc(Cn3c(=O)oc4cc(S(=O)(=O)Nc5cccc(F)n5)c(F)cc43)c2C1 (single isomer, unassigned)	ratio of Nav 1.5:Nav 1.7 potency	914
C[C@H](c1ccccc1C#CCN)n1c(=O)oc2cc(S(=O)(=O)Nc3cccc(F)n3)c(F)cc21	ratio of Nav 1.5:Nav 1.7 potency	546

---

# tested system: human Nav1.5 (Homo sapiens, UniProt Q14524)
# Construct: expressed in transfected cells
# method summary: PatchXpress sodium current measurement, inactivated state block, Nav1.5
# Assay type: cell-based
# setup conditions: determined by PatchXpress measurement, HEK 293 cells
Each entry below lists one item and its recorded ratio of Nav 1.5:Nav 1.7 potency value.
measured parameter: ratio of Nav 1.5:Nav 1.7 potency

compound	assay result
C[C@H](c1ccccc1C#CCN1CCC(O)C1)n1c(=O)oc2cc(S(=O)(=O)Nc3cccc(F)n3)c(F)cc21 (some centres unmarked)	75
C[C@H](c1ccccc1C#C[C@H]1CCCC[C@@H]1N)n1c(=O)oc2cc(S(=O)(=O)Nc3cccc(F)n3)c(F)cc21 (mixture of isomers)	714
C[C@H](c1ccccc1CN)n1c(=O)oc2cc(S(=O)(=O)Nc3cccc(F)n3)c(F)cc21	1525
Cc1cc2c(cc1S(=O)(=O)Nc1cccc(F)n1)oc(=O)n2[C@H](C)c1cccc(C#CCN)c1	251
C[C@H](c1cccc2c1CNCC2)n1c(=O)oc2cc(S(=O)(=O)Nc3ccc(F)cn3)c(F)cc21.Cl	108
Cc1cc2c(cc1S(=O)(=O)Nc1cccc(F)n1)oc(=O)n2[C@H](C)c1ccccc1CN	147
C[C@H](c1ccccc1N1CCNCC1)n1c(=O)oc2cc(S(=O)(=O)Nc3cccc(F)n3)c(F)cc21	200
Cc1cc2c(cc1S(=O)(=O)Nc1cccc(F)n1)oc(=O)n2[C@H](C)c1cccc(CCCN)c1	305
O=c1oc2cc(S(=O)(=O)Nc3cccc(F)n3)c(F)cc2n1Cc1cccc2c1CNCC2F (single isomer, unassigned; enantiomer 2) [Ex5-11]	54
C[C@H](c1ccccc1C#CCN1CCC1)n1c(=O)oc2cc(S(=O)(=O)Nc3cccc(F)n3)c(F)cc21	127
NC1CCc2cccc(Cn3c(=O)oc4cc(S(=O)(=O)Nc5cccc(F)n5)ccc43)c2C1 (single isomer, unassigned)	43
C[C@H](c1cccc(C#CCN2CCNCC2)c1)n1c(=O)oc2cc(S(=O)(=O)Nc3cccc(F)n3)c(F)cc21	137
C[C@H](c1ccccc1C#CC(N)CO)n1c(=O)oc2cc(S(=O)(=O)Nc3cccc(F)n3)c(F)cc21 (some centres unmarked)	822
C[C@H](c1ccccc1C1=C[C@@H]2CC[C@H](C1)N2)n1c(=O)oc2cc(S(=O)(=O)Nc3cccc(F)n3)c(F)cc21	681

---

# tested system: human Nav1.5 (Homo sapiens)
# Construct: expressed in transfected cells
# method summary: PatchXpress sodium current measurement, inactivated state block, Nav1.5
# Assay type: cell-based
# setup conditions: determined by PatchXpress measurement, HEK 293 cells
Each entry below lists one item and its recorded ratio of Nav 1.5:Nav 1.7 potency value.
measured parameter: ratio of Nav 1.5:Nav 1.7 potency

molecule	tested system	assay result
C[C@H](c1ccccc1C1CNC1)n1c(=O)oc2cc(S(=O)(=O)Nc3cccc(F)n3)c(F)cc21 [Ex10-3]	human Nav1.5 (Homo sapiens)	1306
C[C@H](c1cccc(C#CC2(N)CC2)c1)n1c(=O)oc2cc(S(=O)(=O)Nc3cccc(F)n3)c(F)cc21 [Ex21-12]	human Nav1.5 (Homo sapiens)	116
C[C@H](c1cccc(CCN)c1)n1c(=O)oc2cc(S(=O)(=O)Nc3cccc(F)n3)c(F)cc21 [Ex19-11]	human Nav1.5 (Homo sapiens)	244
Cc1cc2c(cc1S(=O)(=O)Nc1cccc(F)n1)oc(=O)n2[C@H](C)c1cccc(C)c1CN [Ex19-2]	human Nav1.5 (Homo sapiens)	133
O=c1oc2cc(S(=O)(=O)Nc3cccc(F)n3)c(F)cc2n1C1CCCc2ccc(F)cc21 (centres unmarked) [Ex4-5]	human Nav1.5 (Homo sapiens)	101
Cc1cc2c(cc1S(=O)(=O)Nc1cccc(F)n1)oc(=O)n2[C@H](C)c1ccccc1C1=CCNCC1 [Ex17-8]	human Nav1.5 (Homo sapiens)	1452
C[C@H](c1cccc(C#CC(C)(C)N)c1)n1c(=O)oc2cc(S(=O)(=O)Nc3cccc(F)n3)c(F)cc21 [Ex21-1]	human Nav1.5 (Homo sapiens)	151
C[C@H](c1ccccc1C1(O)CNC1)n1c(=O)oc2cc(S(=O)(=O)Nc3cccc(F)n3)c(F)cc21 [Ex12-4]	human Nav1.5 (Homo sapiens)	75
